# System: MDA-MB-231 breast
# Assay notes: NCI-60 one-dose screen, 48 h
# Measurement parameters: 10 µM unless noted
About 83,000 compounds went through this panel and 20% of them were active in at least one assay; those are over-represented in the sample as a whole. Active and inactive are the calls of the source. How the source made its calls: active means growth percent below 10; inactive means the rest.
Give your call using only these classes: 1.0 (active), 0.0 (inactive)

Worked set:
# Compound, Classification
measured = [
    ("Nc1nc(C(=O)N/N=C/c2ccc(N3CCOCC3)cc2)nn1-c1ccc(S(N)(=O)=O)cc1", 0.0),
    ("Cn1cc(-c2csc(-c3cn(C(=O)OC(C)(C)C)c4ccccc34)n2)c2ccnc(Cl)c21", 0.0),
    ("O=C(CCCCCCCCC(=O)N/N=C\\c1cc(Cl)ccc1O)N/N=C\\c1cc(Cl)ccc1O", 0.0),
    ("O=C(CCl)Nc1ccc2c(Nc3cc(O)ccc3Cl)ncnc2c1", 1.0),
    ("C[N+](C)(C/C=C/c1ccccc1)Cc1ccccc1", 0.0),
    ("Cc1nc2sc(C(=O)Nc3cccc(Cl)c3)c(N)c2cc1C(O)c1ccccc1 (stereo not given)", 0.0),
]

Test call for this compound, please: "Clc1ccc(-c2nc(-c3c[nH]c4ncccc34)cs2)cc1" 0.0

Test call for this compound, please: "COc1cc(C(=O)c2c(N)ncn2-c2ccccc2)cc(OC)c1OC" 0.0

Test call for this compound, please: "CN(C)c1ccc(-c2cc(-c3ccc(Nc4nc(Nc5ccc(Cl)cc5)nc(Nc5ccc(Cl)cc5)n4)cc3)nc(N)c2C#N)cc1" 0.0

Test call for this compound, please: "CCN1CCN(CC(=O)Nc2nc3ccc(NCc4ccc(Br)cc4)cc3s2)CC1" 0.0

###

For each record, write down the corresponding growth.
# Test system: NCI-H226 lung
# Assay notes: NCI-60 one-dose screen, 48 h (100 = growth as untreated, 0 = no growth, -100 = all killed)
# Measurement parameters: 10 µM unless noted
Compounds without any hit were thinned out: in the full panel of roughly 83,000, 20% have a hit. The source made the active and inactive calls. The calls were made as follows: active = growth percent below 10; inactive = the rest.

As a guide, the following entries are already answered.
# Compound, Assay metric, Data value
rows = [
    ("COc1ccc(Nc2ncccc2NC(=O)c2cn(Cc3cccc(Oc4ccccc4)c3)nn2)cc1OC", "growth", "92.4% (inactive)"),
    ("Clc1ccc(-c2cn3ccsc3n2)c(Cl)c1Cl", "growth", "84.6% (inactive)"),
    ("Cc1cc2nc(-c3c(-c4ccc(F)cc4)nc4sccn34)[nH]c2cc1C", "growth", "97.5% (inactive)"),
    ("Cc1ccc(/C=C/C(=O)c2ccc(NC(=O)CSc3nc4c([nH]3)c(=O)n(C)c(=O)n4C)cc2)c(C)c1", "growth", "47.2% (inactive)"),
    ("C=C(C)[C@@H]1CC[C@]2(CO)CC[C@]3(C)[C@H](CC[C@@H]4[C@@]5(C)CCC(NCCc6ccc(O)cc6)C(C)(C)[C@@H]5CC[C@]43C)[C@@H]12 (stereo not given in full)", "growth", "66.8% (inactive)"),
    ("COC(c1ccc2ccccc2c1)C(C)C(F)F (stereo not given)", "growth", "100% (inactive)"),
    ("Nc1ncnc2c1c(-c1ccc(Oc3ccccc3)cc1)nn2CC1SSCC1O (stereo not given)", "growth", "23.4% (inactive)"),
    ("COc1cc(C(=O)c2c(-c3ccccc3)oc3c(OC)cccc23)cc(OC)c1O", "growth", "-0.617% (active)"),
]

Give me growth for each of these compounds, listed below.
1. O=C1/C(=C/c2ccccc2[N+](=O)[O-])COc2ccc(O)cc21
2. CCCCCCCCCCCCCCCCCCOc1ccccc1CC(=O)OCC[N+]1(C)CCOCC1

["66.4% (inactive)", "49.8% (inactive)"]
